Cited source for all entries: paper doi:10.1101/2025.08.03.668247

# SYSTEM_UNDER_TEST: T1, R753A (Drosophila melanogaster, UniProt Q9W1K4 512-819, R753A)
# T1 sequence: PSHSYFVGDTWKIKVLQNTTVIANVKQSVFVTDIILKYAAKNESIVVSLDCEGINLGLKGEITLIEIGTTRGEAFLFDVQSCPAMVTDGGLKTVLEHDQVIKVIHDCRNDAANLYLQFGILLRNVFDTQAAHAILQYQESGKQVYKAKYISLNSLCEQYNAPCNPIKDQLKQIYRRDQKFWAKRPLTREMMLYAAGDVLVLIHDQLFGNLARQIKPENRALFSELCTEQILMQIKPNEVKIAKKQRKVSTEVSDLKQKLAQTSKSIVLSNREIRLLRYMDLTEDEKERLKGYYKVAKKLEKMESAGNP
# METHOD_SUMMARY: fluorescence anisotropy; FA: 20 mM HEPES-NaOH pH 7.5, 100 mM NaCl, 10% glycerol, 20 C, 10 nM FAM-RNA; competition: 150 nM Egl512-819 + 10 nM FAM-K10 TLS, same buffer
# ASSAY_CONDITIONS: protein: recombinant; tags: N-terminal GST; label: 5'-6-FAM; hairpin with two bulges
VALUE_KIND: Kd (nM)
Your answer should be a plain number; it is taken to be in nM.

Note down Kd recorded for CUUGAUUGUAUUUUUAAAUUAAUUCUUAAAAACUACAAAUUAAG (structured_RNA) [K10 TLS (FAM)]
95
